This collection of values is drawn from the supplement of paper PMC6992640.

- Test system: HCI01 (cells of a triple-negative basal-like breast cancer xenograft)
- test: cell viability (% of vehicle); higher = less cytotoxic
- run.conditions: 10 µM; 72 h
endpoint.label: cell viability
Keep it simple and answer with nothing but the number.

Query: Given the entry Nc1nc(=O)c2c(CCc3ccc(C(=O)NC(CCC(=O)O)C(=O)O)cc3)c[nH]c2[nH]1.O.[Na+] (stereo not drawn) [Pemetrexed disodium hemipenta hydrate] , report its measured cell viability.
Response: 97.2

Query: Given the entry O=c1oc2c(O)c(O)cc3c(=O)oc4c(O)c(O)cc1c4c23 , report its measured cell viability.
Response: 102

Query: Given the entry Cc1cc(=O)[nH]c(=S)[nH]1 , report its measured cell viability.
Response: 97.2

###

- Tested on: UCD52 (cells of a triple-negative basal-like breast cancer xenograft)
- test: cell viability of combination (% of vehicle); higher = less cytotoxic
- run.conditions: 1 µM; 72 h; partner dose: 10 nM
Threshold 60. cell viability of combination below it: true (1). cell viability of combination at it or above: false (0).

Query: In the record for CC(C)c1nc(CN(C)C(=O)NC(C(=O)NC(Cc2ccccc2)CC(O)C(Cc2ccccc2)NC(=O)OCc2cncs2)C(C)C)cs1 (stereo not given) [Ritonavir] + CC(C)C[C@H](NC(=O)[C@H](CCc1ccccc1)NC(=O)CN1CCOCC1)C(=O)N[C@@H](Cc1ccccc1)C(=O)N[C@@H](CC(C)C)C(=O)[C@@]1(C)CO1 , is cell viability of combination less than 60?
Response: false (0)

Query: In the record for C=CC(=O)N1CCC(Oc2cc3c(Nc4ccc(Cl)c(Cl)c4F)ncnc3cc2OC)CC1 [Poziotinib] + CC(C)C[C@H](NC(=O)[C@H](CCc1ccccc1)NC(=O)CN1CCOCC1)C(=O)N[C@@H](Cc1ccccc1)C(=O)N[C@@H](CC(C)C)C(=O)[C@@]1(C)CO1 , is cell viability of combination less than 60?
Response: true (1)

Query: In the record for CC(O)C(=O)O.CCOc1ccc2nc3cc(N)ccc3c(N)c2c1.O [Ethacridine lactate monohydrate] + CC(C)C[C@H](NC(=O)[C@H](CCc1ccccc1)NC(=O)CN1CCOCC1)C(=O)N[C@@H](Cc1ccccc1)C(=O)N[C@@H](CC(C)C)C(=O)[C@@]1(C)CO1 , is cell viability of combination less than 60?
Response: false (0)

Query: In the record for CCOC(=O)C1=C(COCCN)NC(C)=C(C(=O)OC)C1c1ccccc1Cl.O=S(=O)(O)c1ccccc1 (stereo not given) [Amlodipine Besylate] + CC(C)C[C@H](NC(=O)[C@H](CCc1ccccc1)NC(=O)CN1CCOCC1)C(=O)N[C@@H](Cc1ccccc1)C(=O)N[C@@H](CC(C)C)C(=O)[C@@]1(C)CO1 , is cell viability of combination less than 60?
Response: false (0)

###

- Tested on: HCI01
- test: cell viability of combination (% of vehicle); higher = less cytotoxic
- run.conditions: 1 µM; 72 h; partner dose: 10 nM
endpoint.label: cell viability of combination
Keep it simple and answer with nothing but the number.

Query: Can you look up cell viability of combination on HCI01 for CC[C@@]1(O)C(=O)OCc2c1cc1n(c2=O)Cc2cc3c(CN(C)C)c(O)ccc3nc2-1 [Topotecan] + CN(C)C/C=C/C(=O)Nc1cc2c(Nc3ccc(F)c(Cl)c3)ncnc2cc1O[C@H]1CCOC1 [Afatinib] ?
Response: 40.1

Query: Can you look up cell viability of combination on HCI01 for Cl.Nc1ccn(C2OC(CO)C(O)C2O)c(=O)n1 (stereo not drawn) [Cytarabine hydrochloride] + CN(C)C/C=C/C(=O)Nc1cc2c(Nc3ccc(F)c(Cl)c3)ncnc2cc1O[C@H]1CCOC1 [Afatinib] ?
Response: 46.6

Query: Can you look up cell viability of combination on HCI01 for COc1cc(C(=O)NS(=O)(=O)c2ccccc2C)ccc1Cc1cn(C)c2ccc(NC(=O)OC3CCCC3)cc12 [Zafirlukast] + CN(C)C/C=C/C(=O)Nc1cc2c(Nc3ccc(F)c(Cl)c3)ncnc2cc1O[C@H]1CCOC1 [Afatinib] ?
Response: 61.4

Query: Can you look up cell viability of combination on HCI01 for CC(=O)c1cc2c(o1)C(=O)c1ccccc1C2=O [Napabucasin] + CN(C)C/C=C/C(=O)Nc1cc2c(Nc3ccc(F)c(Cl)c3)ncnc2cc1O[C@H]1CCOC1 [Afatinib] ?
Response: 16.2

Query: Can you look up cell viability of combination on HCI01 for CO[C@H]1/C=C/O[C@@]2(C)Oc3c(C)c(O)c4c(O)c(c(/C=N/N5CCN(C6CCCC6)CC5)c(O)c4c3C2=O)NC(=O)/C(C)=C\C=C\[C@H](C)[C@H](O)[C@@H](C)[C@@H](O)[C@@H](C)[C@H](OC(C)=O)[C@@H]1C [Rifapentine] + CN(C)C/C=C/C(=O)Nc1cc2c(Nc3ccc(F)c(Cl)c3)ncnc2cc1O[C@H]1CCOC1 [Afatinib] ?
Response: 56.2

Query: Can you look up cell viability of combination on HCI01 for CC1(COc2ccc3c(c2)ncn3-c2ccc3cccc(N4CCC(N)CC4)c3n2)COC1 + CN(C)C/C=C/C(=O)Nc1cc2c(Nc3ccc(F)c(Cl)c3)ncnc2cc1O[C@H]1CCOC1 [Afatinib] ?
Response: 56.3

Query: Can you look up cell viability of combination on HCI01 for Cl.Cl.Fc1ccc(C(c2ccc(F)cc2)N2CCN(CC=Cc3ccccc3)CC2)cc1 [Flunarizine 2HCl] + CN(C)C/C=C/C(=O)Nc1cc2c(Nc3ccc(F)c(Cl)c3)ncnc2cc1O[C@H]1CCOC1 [Afatinib] ?
Response: 63.3

Query: Can you look up cell viability of combination on HCI01 for CN1CCN(CCCN2c3ccccc3Sc3ccc(C(F)(F)F)cc32)CC1.Cl.Cl [Trifluoperazine 2HCl] + CN(C)C/C=C/C(=O)Nc1cc2c(Nc3ccc(F)c(Cl)c3)ncnc2cc1O[C@H]1CCOC1 [Afatinib] ?
Response: 56.1

###

I'd be grateful if you could share measured cell viability for these entries.
- Tested on: HCI01
- test: cell viability (% of vehicle); higher = less cytotoxic
- run.conditions: 10 µM; 72 h

Query: Can you look up cell viability on HCI01 for c1cc(CN2CCCNCCNCCCNCC2)ccc1CN1CCCNCCNCCCNCC1 ?
Response: 99.4

Query: Can you look up cell viability on HCI01 for CC(C)COc1ccc(CNC(=O)N(Cc2ccc(F)cc2)C2CCN(C)CC2)cc1 ?
Response: 98.1

Query: Can you look up cell viability on HCI01 for NCCCCC(NC(CCc1ccccc1)C(=O)O)C(=O)N1CCCC1C(=O)O.O.O (stereo not drawn) [Lisinopril dihydrate] ?
Response: 98.2

###

I'd be grateful if you could share measured cell viability for these entries.
- Tested on: HCI01
- test: cell viability (% of vehicle); higher = less cytotoxic
- run.conditions: 10 µM; 72 h
Keep it simple and answer with nothing but the number.

Query: Given the entry CC(C)NCC(O)c1ccc(NS(C)(=O)=O)cc1.Cl (centres undefined) [Sotalol hydrochloride] , report its measured cell viability.
Response: 102

Query: Given the entry CC(=O)N=c1sc(S(N)(=O)=O)nn1C [Methazolamide] , report its measured cell viability.
Response: 103

Query: Given the entry N=C(N)c1ccc(OCCCCCOc2ccc(C(=N)N)cc2)cc1.O=S(=O)(O)CCO.O=S(=O)(O)CCO [Pentamidine isethionate] , report its measured cell viability.
Response: 98.1

Query: Given the entry C[C@H]1COc2c(N3CCN(C)CC3)c(F)cc3c(=O)c(C(=O)O)cn1c23 , report its measured cell viability.
Response: 102

###

- Test system: HCI13 (cells of an ER-positive luminal breast cancer xenograft)
- test: cell viability (% of vehicle); higher = less cytotoxic
- run.conditions: 10 µM; 72 h
endpoint.label: cell viability

Query: Can you look up cell viability on HCI13 for CCc1cc(C(C)=NOCc2ccc(C3CCCCC3)c(C(F)(F)F)c2)ccc1CN1CC(C(=O)O)C1 [BAF312 (Siponimod)] ?
Response: 75.6

Query: Can you look up cell viability on HCI13 for OCC(O)C(O)C(O)CO (stereo unspecified) ?
Response: 97

Query: Can you look up cell viability on HCI13 for CC(=O)Nc1cccc(-n2c(=O)n(C3CC3)c(=O)c3c(Nc4ccc(I)cc4F)n(C)c(=O)c(C)c32)c1 ?
Response: 110

Query: Can you look up cell viability on HCI13 for C[N+](C)(C)CC(O)CC(=O)O.[Cl-] (racemic) [DL-Carnitine HCl] ?
Response: 113

Query: Can you look up cell viability on HCI13 for C/C=C/C1=C(C(=O)O)N2C(=O)[C@@H](NC(=O)[C@H](N)c3ccc(O)cc3)[C@@H]2SC1 ?
Response: 85.4

Query: Can you look up cell viability on HCI13 for CO[C@H]1/C=C/O[C@@]2(C)Oc3c(C)c(O)c4c(c3C2=O)C2=NC3(CCN(CC(C)C)CC3)NC2=C(NC(=O)/C(C)=C\C=C\[C@H](C)[C@H](O)[C@@H](C)[C@@H](O)[C@@H](C)[C@H](OC(C)=O)[C@@H]1C)C4=O ?
Response: 113

Query: Can you look up cell viability on HCI13 for CC1(C)SC2C(NC(=O)C(N)c3ccc(O)cc3)C(=O)N2C1C(=O)O (stereo unspecified) ?
Response: 141

Query: Can you look up cell viability on HCI13 for CC1OC(OC2C(CO)OC(OC3C(CO)OC(O)C(O)C3O)C(O)C2O)C(O)C(O)C1NC1C=C(CO)C(O)C(O)C1O (stereo unspecified) ?
Response: 117

Query: Can you look up cell viability on HCI13 for Nc1ccc(O)c(C(=O)O)c1 ?
Response: 130

Query: Can you look up cell viability on HCI13 for CC(C)c1nc(N(C)S(C)(=O)=O)nc(-c2ccc(F)cc2)c1C=CC(O)CC(O)CC(=O)[O-].CC(C)c1nc(N(C)S(C)(=O)=O)nc(-c2ccc(F)cc2)c1C=CC(O)CC(O)CC(=O)[O-].[Ca+2] (stereo unspecified) ?
Response: 126

Query: Can you look up cell viability on HCI13 for COC(=O)C1=C(C)NC(C)=C(C(=O)OCCN(C)Cc2ccccc2)C1c1cccc([N+](=O)[O-])c1.Cl (stereo unspecified) [Nicardipine HCl] ?
Response: 55.4
